# Test system: Surinam grass (Brachiaria decumbens)
# Assay Method Text: Test B pre-/postemergence plant response
# Assay type: in vivo
# Experimental Context: Postemergence, 250 g ai/ha; scale 0 to 100 (0 no effect, 100 complete control)
Entries and their measured Plant response rating, Surinam Grass follow.
# respond with the number and nothing more

The cases that follow already have their Plant response rating, Surinam Grass on record.
• O=C1CCCC(O)=C1C(=O)c1cnc(C2CC2)n(-c2ccccc2)c1=O [Compound 87] = 85
• CCCc1ncc(C(=O)C2=C(O)CCCC2=O)c(=O)n1-c1cccc(C)c1 [Compound 79] = 90
• O=C1CCCC(O)=C1C(=O)c1cnc(-c2cccs2)n(CC2CCCO2)c1=O (stereo not shown) [Compound 109] = 80
• CCOCCn1c(-c2ccccc2)ncc(C(=O)C2=C(O)CCCC2=O)c1=O [Compound 96] = 85
• Cc1cccc(-n2c(-c3ccccc3)ncc(C(=O)C3=C(O)CCCC3=O)c2=O)c1F [Compound 58] = 98

The reported value for COCCCn1c(-c2cccc(F)c2)ncc(C(=O)C2=C(O)CCCC2=O)c1=O [Compound 126] in terms of Plant response rating, Surinam Grass is 98

The recorded Plant response rating, Surinam Grass for entry O=C1CCCC(O)=C1C(=O)c1cnc(C2CCCC2)n(-c2ccccc2)c1=O [Compound 92] equals 75

---

# Test system: bermudagrass (Cynodon dactylon)
# Assay Method Text: Test B pre-/postemergence plant response
# Type: in vivo
# Experimental Context: Preemergence, 125 g ai/ha; 0 to 100 scale
In this section, each of the compounds is paired with its reported Bermudagrass plant response rating.
Number, no unit, nothing else.

- Cc1ccc(F)c(-n2c(-c3ccccc3)ncc(C(=O)C3=C(O)CCCC3=O)c2=O)c1: 100
- O=C1CCCC(O)=C1C(=O)c1cnc(-c2ccccc2)n(-c2ccccc2Br)c1=O: 98
- Cc1cccc(-n2c(-c3ccccc3)ncc(C(=O)C3=C(O)CCCC3=O)c2=O)c1C: 100
- CCCn1c(-c2ccccc2)ncc(C(=O)C2=C(O)CCCC2=O)c1=O: 100
- O=C1CCCC(O)=C1C(=O)c1cnc(-c2ccccc2)n(-c2ccccc2)c1=O: 100

Kindly note the recorded Bermudagrass plant response rating for O=C1CCCC([O-])=C1C(=O)c1cnc(-c2ccccc2)n(-c2ccccc2)c1=O.[K+] , which is 100

---

# System: velvetleaf (Abutilon theophrasti)
# Assay Method Text: Test B pre-/postemergence plant response
# Format: in vivo
# Experimental Context: Postemergence, 250 g ai/ha; scale 0 to 100 (0 no effect, 100 complete control)
# Excerpt: […] Treated plants and controls were maintained in a greenhouse for 13 to 15 days, after which time all treated plants were visually evaluated and compared to controls. […]
Item-by-item account of Plant response rating, Velvetleaf

Example compounds with recorded Plant response rating, Velvetleaf:
• O=C1CCCC(O)=C1C(=O)c1cnc(-c2ccccc2)n(C2CC2)c1=O = 100
• O=C1CCCC(O)=C1C(=O)c1cnc(-c2ccc(Br)cc2)n(-c2ccccc2)c1=O = 100
• COCCn1c(-c2ccco2)ncc(C(=O)C2=C(O)CCCC2=O)c1=O = 100
• CCCCc1ncc(C(=O)C2=C(O)CCCC2=O)c(=O)n1-c1ccccc1C = 100
• Cc1cccc(-n2c(-c3ccccc3)ncc(C(=O)C3=C(O)CCCC3=O)c2=O)c1F = 95
• CCCn1c(-c2cccc(OC)c2)ncc(C(=O)C2=C(O)CCCC2=O)c1=O = 85

The compound listed as CCCc1ncc(C(=O)C2=C(O)CCCC2=O)c(=O)n1CCC shows Plant response rating, Velvetleaf equal to 100

---

# Test system: morningglory (Ipomoea coccinea)
# Assay Method Text: Test B pre-/postemergence plant response
# Assay type: in vivo
# Experimental Context: Preemergence, 62 g ai/ha; scale 0 to 100, 0 no effect, 100 complete control
# Text: […] Treated plants and controls were maintained in a greenhouse for 13 to 15 days, after which time all treated plants were visually evaluated and compared to controls. […]
Result Type: Plant response rating, Morningglory
Quick one: just the number, no unit, thanks!

- CCCc1ncc(C(=O)C2=C(O)CCCC2=O)c(=O)n1-c1ccccc1 [Compound 217]: 0
- O=C1CCCC(O)=C1C(=O)c1cnc(-c2ccccc2)n(-c2ccc(F)cc2)c1=O [Compound 24]: 100

Kindly review the next compound as well.
Value of Plant response rating, Morningglory reported for the compound CCCCc1ncc(C(=O)C2=C(O)CCCC2=O)c(=O)n1-c1ccccc1C [Compound 62] is 0

---

# Test system: morningglory (Ipomoea spp.)
# Assay Method Text: Test A pre-/postemergence plant response
# Assay type: in vivo
# Experimental Context: Postemergence, 500 g ai/ha; visual injury, 0 to 100 scale (0 no effect, 100 complete control), approx. ten days
Form field: Morningglory plant response rating (one value per entry).
Could you respond with only the numeric value?

These recorded examples may help you get a feel for the data.
* Cc1ccc(-n2c(-c3cccc(C)c3)ncc(C(=O)C3=C(O)CCCC3=O)c2=O)cc1 [Compound 211] | 100
* O=C1CCCC(O)=C1C(=O)c1cnc(-c2ccc(F)c(F)c2)n(C2CCCCC2)c1=O [Compound 198] | 100
* Cc1ccccc1-n1c(-c2cccc(Br)c2)ncc(C(=O)C2=C(O)CCCC2=O)c1=O [Compound 209] | 100
* C#Cc1ccc(-c2ncc(C(=O)C3=C(O)C4CCC(C4)C3=O)c(=O)n2C2CCCCC2)cc1 (centres unmarked) [Compound 254] | 50
* O=C1CCCC(O)=C1C(=O)c1cnc(-c2cc(F)cc(F)c2)n(CC2CCCCC2)c1=O [Compound 163] | 100
* O=C1CCCC(O)=C1C(=O)c1cnc(-c2cc(F)cc(F)c2)n(CC2CCCO2)c1=O (centres unmarked) [Compound 180] | 100
* O=C1CCCC(O)=C1C(=O)c1cnc(-c2ccccc2)n(CCC(F)(F)F)c1=O [Compound 207] | 80

Shift focus to the following entry.
Morningglory plant response rating on morningglory (Ipomoea spp.) for CCc1ccc(-n2c(-c3cccc(Br)c3)ncc(C(=O)C3=C(O)CCCC3=O)c2=O)cc1 [Compound 175] is 80

---

Plant response rating, Wheat for assorted molecules
# System: wheat (Triticum aestivum)
# Assay Method Text: Test B pre-/postemergence plant response
# Format: in vivo
# Experimental Context: Postemergence, 125 g ai/ha; scale 0 to 100 (0 no effect, 100 complete control)

- O=C1CCCC(O)=C1C(=O)c1cnc(-c2ccccc2)n(C2CCCCCC2)c1=O: 5
- O=C1CCCC(O)=C1C(=O)c1cnc(-c2cccs2)n(CC2CCCO2)c1=O (stereo not drawn): 5

# evaluate next
The value of Plant response rating, Wheat recorded for O=C1CCCC(O)=C1C(=O)c1cnc(C2CC2)n(C2CCCCC2)c1=O when tested on wheat (Triticum aestivum) reads 40

---

# Tested on: cocklebur (Xanthium strumarium)
# Assay Method Text: Test B pre-/postemergence plant response
# Assay type: in vivo
# Experimental Context: 62 g ai/ha, postemergence; 0 is no effect, 100 is complete control; 13 to 15 days
Result Type: Cocklebur plant response rating (0 to 100 scale)
Enter the number alone.

Observe how each entry below is paired with its result.
* COCCCn1c(-c2cccc(F)c2)ncc(C(=O)C2=C(O)CCCC2=O)c1=O | 65
* O=C1CCCC(O)=C1C(=O)c1cnc(-c2ccsc2)n(C2CCCCC2)c1=O | 100
* O=C1CCCC(O)=C1C(=O)c1cnc(-c2cccc(Br)c2)n(-c2ccccc2)c1=O | 0

For this compound ( COCCn1c(-c2cccs2)ncc(C(=O)C2=C(O)CCCC2=O)c1=O ), measured Cocklebur plant response rating (0 to 100 scale) is 95

Entry O=C1CCCC(O)=C1C(=O)c1cnc(-c2ccccc2)n(C2CCCCCC2)c1=O — recorded Cocklebur plant response rating (0 to 100 scale) = 95

Recorded result, CCCn1c(-c2cccc(F)c2)ncc(C(=O)C2=C(O)CCCC2=O)c1=O , Cocklebur plant response rating (0 to 100 scale): 95

---

Parameter Plant response rating, Wheat: see the listing below.
# Tested on: wheat (Triticum aestivum)
# Assay Method Text: Test B pre-/postemergence plant response
# Format: in vivo
# Experimental Context: Preemergence, 62 g ai/ha; scale 0 to 100, 0 no effect, 100 complete control
# Excerpt: […] Treated plants and controls were maintained in a greenhouse for 13 to 15 days, after which time all treated plants were visually evaluated and compared to controls. […]
Please give the numeric answer without any surrounding text.

Plant response rating, Wheat reported for this compound O=C1CCCC(O)=C1C(=O)c1cnc(-c2cccc(Cl)c2)n(-c2ccccc2)c1=O : 0

Lookup result for O=C1CCCC(O)=C1C(=O)c1cnc(-c2cccc(Br)c2)n(-c2ccccc2)c1=O ; measured Plant response rating, Wheat: 0

Lab note: CCCc1ncc(C(=O)C2=C(O)CCCC2=O)c(=O)n1-c1ccccc1 gave Plant response rating, Wheat of 0

// CC(C)Cc1ncc(C(=O)C2=C(O)CCCC2=O)c(=O)n1-c1ccccc1 : Plant response rating, Wheat value = 0

For record CCc1cccc(-n2c(-c3ccccc3)ncc(C(=O)C3=C(O)CCCC3=O)c2=O)c1 the listed Plant response rating, Wheat is 0

Recorded Plant response rating, Wheat (compound CCCc1ncc(C(=O)C2=C(O)CCCC2=O)c(=O)n1CCC ): 0

The compound listed as Cc1cccc(-n2c(-c3ccccc3)ncc(C(=O)C3=C(O)CCCC3=O)c2=O)c1C shows Plant response rating, Wheat equal to 0
